Subject Of Test: T1, extracellular domain of human BCMA (human, UniProt Q02223 1-54)
T1 construct: amine-linked to Octet AR2G tips; also called hsBCMA; BCMA (human)
T1 sequence: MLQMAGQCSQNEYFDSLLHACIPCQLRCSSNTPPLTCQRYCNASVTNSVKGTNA
Assay Method Text: Octet BLI; Fab 200 nM
Assay Endpoint: pKd
FYI, pKd means -log10 of a concentration in mol per litre.

Prompt line: Please supply the value of reported pKd for the item AB200-R1a-Fab_VH30 (Fab, V domains shown) VH: QVQLVQSGAEVKKPGSSVKVSCKASGGTYSNYWMHWVRQAPGQGLEWMGATYRGHTDTYYNQKFKGRVTITADKSTSTAYMELSSLRSEDTAVYYCARGAIYHGYDVMDNWGQGTLVTVSS VL: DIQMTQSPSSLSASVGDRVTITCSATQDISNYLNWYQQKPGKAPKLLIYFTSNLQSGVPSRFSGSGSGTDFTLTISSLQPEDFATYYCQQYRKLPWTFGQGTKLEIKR
Response line: 7.65

Prompt line: Please supply the value of reported pKd for the item AB200-R1a-Fab_VH32 (Fab, V domains shown) VH: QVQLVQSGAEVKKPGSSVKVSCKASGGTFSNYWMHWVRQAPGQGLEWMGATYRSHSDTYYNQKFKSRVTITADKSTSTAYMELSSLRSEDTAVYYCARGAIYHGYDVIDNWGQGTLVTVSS VL: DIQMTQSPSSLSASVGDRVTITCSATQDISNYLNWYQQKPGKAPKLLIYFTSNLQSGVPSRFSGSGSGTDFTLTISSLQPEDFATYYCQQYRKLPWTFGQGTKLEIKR
Response line: 8.96

Prompt line: Please supply the value of reported pKd for the item AB200-R1a-Fab_VH15 (Fab, V domains shown) VH: QVQLVQSGAEVKKPGSSVKVSCKASGGTYSNYWMHWVRQAPGQGLEWMGATYRGHSDAYYNQRFKGRVTITADKSTSTAYMELSSLRSEDTAVYYCARGAIYHGYDVLDNWGQGTLVTVSS VL: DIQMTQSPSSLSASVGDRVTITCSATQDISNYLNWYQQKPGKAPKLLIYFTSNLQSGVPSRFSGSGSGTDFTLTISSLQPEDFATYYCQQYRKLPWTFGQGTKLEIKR
Response line: 7.93

Prompt line: Please supply the value of reported pKd for the item AB200-R1a-Fab_VH50 (Fab, V domains shown) VH: QVQLVQSGAEVKKPGSSVKVSCKASGGTFSNYWMHWVRQAPGQGLEWMGATFRGHSDTYYNQKFKSRVTITADKSTSTAYMELSSLRSEDTAVYYCARGAVYHGYDVLDNWGQGTLVTVSS VL: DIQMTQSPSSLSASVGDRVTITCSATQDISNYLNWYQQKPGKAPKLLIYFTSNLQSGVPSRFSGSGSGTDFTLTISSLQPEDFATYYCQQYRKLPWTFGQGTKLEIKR
Response line: 8.33

Prompt line: Please supply the value of reported pKd for the item AB200-R1a-Fab_VH54 (Fab, V domains shown) VH: QVQLVQSGAEVKKPGSSVKVSCKASGGTFSNYWMHWVRQAPGQGLEWMGATYRGHGDTFYNQKFKGRVTITADKSTSTAYMELSSLRSEDTAVYYCARGAIYHGYDVLNNWGQGTLVTVSS VL: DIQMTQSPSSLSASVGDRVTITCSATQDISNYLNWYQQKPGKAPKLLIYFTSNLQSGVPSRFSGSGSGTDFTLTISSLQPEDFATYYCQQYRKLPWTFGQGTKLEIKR
Response line: 7.92
